# measurement.description: Pharmacokinetic assay in Balb/c mice (plasma and brain tissue)
# Type: in vivo
# measurement.conditions: male, mouse, po, Plasma, p.o. 5 mg/kg, read-out: Area under curve AUC0-t
property.label: AUC(0-t) (ng·h/mL)

Solved entries (count: 4):
molecule=O=C(N[C@H]1C[C@@H](CCN2CCN(c3cccc(Cl)c3Cl)CC2)C1)C1(O)CC1 property_label=AUC(0-t) quantity_unit=ng·h/mL quantitative_readout=2250
molecule="O=C(N[C@H]1C[C@@H](CCN2CCN(c3cccc(Cl)c3Cl)CC2)C1)c1ncco1 [Example 12B]" property_label=AUC(0-t) quantity_unit=ng·h/mL quantitative_readout=1620
molecule="O=C(NC1CC(CCN2CCN(c3cccc(Cl)c3Cl)CC2)C1)C1(O)CC1 (centres unmarked)" property_label=AUC(0-t) quantity_unit=ng·h/mL quantitative_readout=2330
molecule="O=C(NC1CC(CCN2CCCN(c3cccc(Cl)c3Cl)CC2)C1)c1ccco1 (centres unmarked)" property_label=AUC(0-t) quantity_unit=ng·h/mL quantitative_readout=240

A. O=C(NC1CC(CCN2CCN(c3cccc(Cl)c3Cl)CC2)C1)c1nccs1 (centres unmarked)
B. O=C(NC1CC(CCN2CCN(c3cccc(Cl)c3Cl)CC2)C1)c1ncco1 (centres unmarked)
*Q* Of the two listed items, which has the higher AUC(0-t)? First: A Second: B Pick one; state its label.
*A* B

// data source = patent EP4332093A1
